test system: SK-MEL-2 melanoma; assay: NCI tumour cell line growth inhibition, 48 h
READOUT_KIND: TGI

Complete the entry with TGI for CSCCOC(=O)C(=[N+]=[N-])c1ccc([N+](=O)[O-])cc1
> 100 µM

Complete the entry with TGI for CNC(=O)Oc1cc(C)c(/C=C/c2cncc(C(=O)NC)c2)c(C)c1
> 25 µM

Complete the entry with TGI for Nc1c(C(=O)c2ccc(CCCN3CCOCC3)cc2)cnn1-c1ccc(F)cc1
> 25 µM

Complete the entry with TGI for CCCCCCCC(=O)OCC1OC(OC)C(NC(=O)N(CCCl)N=O)C(O)C1O (configuration not stated)
> 57.2 µM

Complete the entry with TGI for COc1cccc(Cc2cc(=O)c3ccc(C)nc3[nH]2)c1
> 100 µM

Complete the entry with TGI for Cc1ccc(C)c2c1CC(Cc1ccccc1C(=O)O)C2=O (configuration not stated)
> 100 µM

Complete the entry with TGI for COC(=O)/C=C\C(C#N)(C#N)N=Cc1ccc(Br)s1
33.2 µM

* * *

tested on: KM12 colon; test: NCI tumour cell line growth inhibition, 48 h
# label = fulfilled if TGI >= 20 µM else not fulfilled

Evaluate COC(=O)[C@H](Cc1ccc(O)cc1)NC(=O)[C@@H](OC)[C@@H]1Cc2cc3cc(OC4CC(OC5CC(O)C(O)C(C)O5)C(O)C(C)O4)c(C)c(O)c3c(O)c2C(=O)[C@H]1OC1CC(OC2CC(OC3CC(C)(O)C(O)C(C)O3)C(O)C(C)O2)C(O)C(C)O1 (stereo not given in full) : TGI at minimum 20 µM?
fulfilled

Evaluate Cc1nc2ccccc2c(=O)n1NC(=S)Nc1ccc(Cl)cc1[N+](=O)[O-] : TGI at minimum 20 µM?
fulfilled

Evaluate CNC(=O)c1cccc2c(Nc3ccc(NS(C)(=O)=O)cc3OC)c3cccc(C)c3nc12 : TGI at minimum 20 µM?
not fulfilled

Evaluate CC1=C([Te]c2ccc(O)cc2)C(=O)c2ccccc2C1=O : TGI at minimum 20 µM?
not fulfilled

Evaluate O=S(=O)(Nc1cc(Cl)ccc1Cl)c1ccc(-c2cnc(C3CC3)o2)cc1 : TGI at minimum 20 µM?
fulfilled

Evaluate Cc1ncsc1-c1ccc(CNC(=O)[C@@H]2C[C@@H](O)CN2C(=O)[C@@H](NC(=O)C2(C#N)CC2)C(C)(C)C)cc1 : TGI at minimum 20 µM?
fulfilled

Evaluate CC(=O)OCC(OC(C)=O)C(OC(C)=O)C(OC(C)=O)C(C=NN(C(C)=O)S(=O)(=O)c1ccc(/C=C2\NC(=O)NC2=O)cc1)OC(C)=O (stereo not given) : TGI at minimum 20 µM?
fulfilled

Evaluate Cc1ccc(/C=C2\Cc3cccc(C)c3C2=O)c(C(=O)O)c1 : TGI at minimum 20 µM?
fulfilled

Evaluate O=C(O)[C@@H]1NC[C@H]2C(Br)=NO[C@H]21 : TGI at minimum 20 µM?
fulfilled

Evaluate COC(=O)/C=C\C(C#N)(C#N)N=Cc1ccc(Br)s1 : TGI at minimum 20 µM?
fulfilled

Evaluate O=C1C2CN(Cc3ccccc3)CC1CN(CC1CC1)C2 : TGI at minimum 20 µM?
fulfilled

Evaluate COc1cc(/C=C\c2cccnc2)cc(OC)c1OC : TGI at minimum 20 µM?
fulfilled

Evaluate Cn1/c(=N\N=C(\CNCCO)[C@@H](O)[C@@H]2OC(c3ccccc3)OC[C@H]2O)sc2ccccc21 (stereo not given in full) : TGI at minimum 20 µM?
fulfilled

Evaluate Cc1nn(-c2nc3ccccc3s2)c2c1C(=O)c1ccccc1-2 : TGI at minimum 20 µM?
fulfilled

Evaluate Cc1ccc2[nH]c3c(c2c1)C1CCC(C(C)(C)C)CC1C1C(=O)N(c2ccc4c(c2)OCO4)C(=O)C31 (stereo not given) : TGI at minimum 20 µM?
not fulfilled

Evaluate CC/C(=C(/c1ccc(O)cc1)c1ccc(OCCN2CCCCC2)cc1)c1ccc(OC)cc1 : TGI at minimum 20 µM?
not fulfilled

Evaluate CCOC(=O)c1ccc(Nc2nc3ccccc3nc2C(=O)OCC)cc1 : TGI at minimum 20 µM?
fulfilled

Evaluate Cc1cc(-c2nc3ccc(F)cc3s2)ccc1N : TGI at minimum 20 µM?
fulfilled

Evaluate COc1cc(OC)c(NC(=O)c2cc3ccccc3cc2O)cc1Cl : TGI at minimum 20 µM?
not fulfilled

* * *

test system: NCI-H226 lung; experiment: NCI tumour cell line growth inhibition, 48 h
READOUT_KIND: TGI

Complete the entry with TGI for CNC(=O)CN(C)C(=O)CCC(=O)N(C)C
> 100 µM

Complete the entry with TGI for COC(=O)/C=C/c1cn(C(C)=O)c2ccc(Br)cc12
> 93.4 µM

Complete the entry with TGI for CNC(=O)Oc1cc(C)c(/C=C/c2cncc(C(=O)NC)c2)c(C)c1
> 25 µM

Complete the entry with TGI for COc1ccc2c(c1OC)OCC(CN(C)C)C2=O (stereo unspecified)
> 67.4 µM

Complete the entry with TGI for O=C(COc1ccc(Cl)c(Cl)c1)N(Cc1ccccc1)Cc1ccc[n+](Cc2ccc(Cl)cc2S(=O)(=O)F)c1
> 100 µM

Complete the entry with TGI for c1ccc(C(=NNc2cnc3ccccc3n2)c2ccccn2)cc1
40.6 µM

Complete the entry with TGI for Cn1c2c3ccc(Cl)cc3nc-2c(Cl)c2ccccc21
62.5 µM

Complete the entry with TGI for Cc1cc(C)nc(SCCc2cccc[n+]2C)n1
> 100 µM

Complete the entry with TGI for COC(=O)C1C2CC3C1C3C2C(=O)OC (stereo unspecified)
> 100 µM

Complete the entry with TGI for C=CCNS(=O)(=O)c1ncnc2nc[nH]c12
> 100 µM

Complete the entry with TGI for C[n+]1ccc(-c2c3nc(c(-c4cc[n+](C)cc4)c4ccc([n-]4)c(-c4cc[n+](C)cc4)c4nc(c(-c5cc[n+](C)cc5)c5ccc2[n-]5)C=C4)C=C3)cc1.[I-].[Zn+2]
48.3 µM

Complete the entry with TGI for COc1ccc(C=C(c2ccc(OCc3ccccc3)cc2)c2ccc(OCc3ccccc3)cc2)cc1
> 100 µM

Complete the entry with TGI for CN(C)CCCCN1c2ccccc2Sc2ccc(C(=O)c3ccccc3)cc21
22.8 µM

Complete the entry with TGI for C=CCSSCC=C
> 92.6 µM

Complete the entry with TGI for C/C(=C\COc1c2c(cc3c1CCO3)OC1(C=C2)OC(CC/C(C)=C/COc2c3ccoc3cc3oc(=O)ccc23)C(C)(C)O1)CCC(O)C(C)(C)O (stereo unspecified)
> 100 µM

Complete the entry with TGI for O=C1c2ccccc2C(=O)N1C/C=C/CO
> 100 µM

Complete the entry with TGI for COc1ccc2nc3ccccc3c(NCCCN(C)CCCl)c2c1
1.62 µM

Complete the entry with TGI for C[C@H]1[C@H]2[C@H]3CC[C@@H]4[C@@]5(C)C/C(=C/c6cccnc6)C(=O)C(C)(C)[C@@H]5CC[C@@]4(C)[C@]3(C)CC[C@]23CO[C@]1(C)[C@@H](C(=O)/C=C\c1cccnc1)C3
2.1 µM

Complete the entry with TGI for COC1O[C@H]2[C@H]3[C@@H]1[C@@H](OS(=O)(=O)c1ccc(C)cc1)C(=O)N3C[C@H]2O (stereo partly specified)
> 100 µM

Complete the entry with TGI for O=C(Nc1nc2ccc(F)cc2s1)c1cccnc1Nc1ccc(Cl)cc1
> 100 µM

Complete the entry with TGI for CCCCCCCCCCCCOC1C(C(CC(=O)N2CCN(c3cccc(C(F)(F)F)c3)CC2)NS(=O)(=O)c2cc(Cl)cc(Cl)c2)OC2OC(C)(C)OC21 (stereo unspecified)
> 100 µM

* * *

system: U251 CNS; experiment: NCI tumour cell line growth inhibition, 48 h
READOUT_KIND: TGI

Quote TGI with test system U251 CNS for CC(C)N1CN(C(C(=O)N[C@@H]2C(=O)N3C2SC(C)(C)C3C(=O)O)c2ccc(O)cc2)CSC1=S (stereo not given in full)
> 100 µM

Quote TGI with test system U251 CNS for CC(C)(C)OC(=O)NC1CCC(C(C)(C)C)CC1 (stereo not given)
> 100 µM

Quote TGI with test system U251 CNS for COC(=O)/C=C(/OC)[C@H](C)[C@H](/C=C/c1csc(-c2csc(C(C)C)n2)n1)OC
> 100 µM

Quote TGI with test system U251 CNS for CC(C)SC(NC(=O)C1C(C)(C)CCC1(C)C)C(=O)O (stereo not given)
> 100 µM

Quote TGI with test system U251 CNS for Cc1ccc(/C=C2\Cc3cccc(C)c3C2=O)c(C(=O)O)c1
> 100 µM

Quote TGI with test system U251 CNS for CC(C)(C)OC(=O)C1CC[C@@H](CC(=O)Oc2ccc([N+](=O)[O-])cc2)N1 (stereo not given in full)
> 100 µM

Quote TGI with test system U251 CNS for COc1ccc2nc3ccccc3c(NCCCN(C)CCCl)c2c1
1.71 µM

Quote TGI with test system U251 CNS for Cc1cc(Oc2ccc3nc(COc4ccc(CC5SC(=O)NC5=O)cc4)n(C)c3c2)cc(C)c1N (stereo not given)
> 94 µM

Quote TGI with test system U251 CNS for CC1(C)CCC(C)(C)c2c1ccc(O)c2Cc1c(O)ccc2c1C(C)(C)CCC2(C)C
3.18 µM

Quote TGI with test system U251 CNS for CCN(CC)CCCC(C)N=c1cc(Nc2cc(=NC(C)CCCN(CC)CC)c3cc(OC)ccc3o2)oc2ccc(OC)cc12 (stereo not given)
3.4 µM

Quote TGI with test system U251 CNS for COc1ccc(OC)c(-c2cc(=O)c3c(OC)c(OC)c(OC)c(OC)c3o2)c1
> 100 µM

Quote TGI with test system U251 CNS for CC[C@]12C=CCN3CC[C@@]4(c5cc(Br)c(OC)cc5N(C)[C@H]4[C@@](O)(C(=O)N[C@@H](Cc4ccc(O)cc4)C(=O)OC)[C@@H]1O)[C@@H]32
27.8 µM

Quote TGI with test system U251 CNS for N#CCC(=O)N/N=C(\C(=O)Nc1ccc(Cl)c(Cl)c1)C1CN(c2ccccc2)N=C1N (stereo not given)
> 100 µM

Quote TGI with test system U251 CNS for Fc1cccc2c1cc1ccc3cccc4ccc2c1c34
> 100 µM

Quote TGI with test system U251 CNS for CC(O)C1(CNc2cc(Cl)nc(N)n2)CC(CCc2ccccc2)C1 (stereo not given)
27.6 µM

Quote TGI with test system U251 CNS for COc1cc(/C=C/C(=O)CC(=O)/C=C/c2ccc(O)c(OC)c2)ccc1O
16.5 µM

Quote TGI with test system U251 CNS for CSCCOC(=O)C(=[N+]=[N-])c1ccc([N+](=O)[O-])cc1
> 100 µM

Quote TGI with test system U251 CNS for O=c1[nH]cnc2c1CCCN2
> 100 µM

Quote TGI with test system U251 CNS for CCCCCCCC(=O)OCC1OC(OC)C(NC(=O)N(CCCl)N=O)C(O)C1O (stereo not given)
> 70.1 µM

Quote TGI with test system U251 CNS for CCC[CH2][Sn]1([CH2]CCC)[O]C(=O)c2ccc(C)cc2[O]1
1.16 µM

Quote TGI with test system U251 CNS for N#CC1=C(N)NC(=S)NC12Nc1ccccc1N2
> 100 µM

Quote TGI with test system U251 CNS for C1=NCCNCCNCCN=Cc2ccccc2OCc2cccc(n2)COc2ccccc21
66.3 µM

Quote TGI with test system U251 CNS for CN(C)Cc1cc(C=O)cc(CN(C)C)c1O
> 100 µM

Quote TGI with test system U251 CNS for O=C(c1cc2c(c3ccccc13)NCCN=C2C(F)(F)F)C(F)(F)F
36.9 µM

Quote TGI with test system U251 CNS for Nc1ncnc2c1ncn2[C@H]1CC[C@@H](NO)C1
> 100 µM

Quote TGI with test system U251 CNS for C=C1C(=O)OC2CC1CCC1(C)OC1CCC(C)=CCCC2(C)O (stereo not given)
29.2 µM

Quote TGI with test system U251 CNS for O=C1OCc2cc3cc4c(cc3c(-c3ccc5c(c3)OCO5)c21)OCO4 (tested in a mixture with another compound)
43.7 µM

Quote TGI with test system U251 CNS for CCCCCCCCCCCCOC1C(C(CC(=O)N2CCN(c3cccc(C(F)(F)F)c3)CC2)NS(=O)(=O)c2cc(Cl)cc(Cl)c2)OC2OC(C)(C)OC21 (stereo not given)
> 100 µM

Quote TGI with test system U251 CNS for NCCN1C(=O)C2C3c4ccccc4C(c4ccccc43)C2C1=O (stereo not given)
> 100 µM

Quote TGI with test system U251 CNS for COc1ccc(OC)c(CC(C)N)c1 (stereo not given)
> 100 µM
